Assignment: determine reported TGI for the given compounds.
# Test system: NCI-H226 lung
# Method: NCI tumour cell line growth inhibition, 48 h
# output: bare number, implied unit µM

For `CC(C)=CCc1cc2c(cc1O)OC[C@H]1c3cc4c(cc3O[C@@H]21)OCO4` , what is its reported TGI?
69.7

Now the compound `CCc1c(Cl)c(C)cc(O)c1Cl`
63.2

Now the compound `O=P1(c2ccccc2)Nc2ccccc2SSc2ccccc2N1`
33.4

Now the compound COC12C(COC(N)=O)C3=C(C(=O)C(C)=C(N)C3=O)N1CC1C2N1C (centres undefined)
38.8

* * *

# Test system: HCC-2998 colon
# Method: NCI tumour cell line growth inhibition, 48 h
Where a SMILES comes first, the peptide text is derived from it. The star is where a group is joined. Boc = CC(C)(C)OC(=O)*
Assignment: determine reported GI50 for the given compounds.

For COc1cc(C2CC(c3cccc(Nc4ccncc4)c3)=NN2c2ccc(Cl)cc2)cc(OC)c1OC (centres undefined) , what is its reported GI50?
1540 nM

Now the compound CC(C(=O)O)c1cccc(Oc2ccccc2)c1 (centres undefined)
> 100000 nM

Now the compound `O=S(=O)(Nc1ccc(Cl)cc1Cl)c1ccc(-c2cnc(C3CC3)o2)cc1`
1600 nM

Now the compound `COc1cc(/C=C/C(=O)c2cccc(-n3cc(-c4ccc(Cl)cc4)[nH]c3=O)c2)ccc1O`
2350 nM

Now the compound `CN1CC[C@@H](c2c(O)cc(O)c3c(=O)cc(-c4ccc(C(F)(F)F)cc4Cl)oc23)[C@@H]1CO`
13700 nM

Now the compound `Clc1nc(Cl)nc(Nc2cccc3ccccc23)n1`
> 100000 nM

Now the compound Nc1ccn(C2OC(CO)C(O)C2O)c(=O)n1 (centres undefined)
1690 nM

Now the compound `CCOC(=O)c1c(-c2ccc(OC)cc2)c(C#N)c2c(C#N)c(N)nn2c1N`
7640 nM

Now the compound COC(=O)C(C)NC(=O)C(CCSC)NC(=O)C(Cc1ccccc1)NC(=O)OC(C)(C)C (stereo not drawn) (Boc-Phe-Met-Ala-OMe; configuration not given here)
20.1 µg/mL
